test system: human liver cytosol stability, half-life; assay: NCATS Human Liver Cytosol Stability Profiling; conditions: higher = more stable

| molecule | value.modifier | half-life / h |
| --- | --- | --- |
| Cc1ccc(-c2noc([C@@H]3Cc4nc[nH]c4CN3Cc3cccc(C#N)c3)n2)cc1 | = | 1.06 |
| N#Cc1ccc(CN2CCC3(CC2)CC(=O)c2ccccc2O3)cc1 | > | 2 |
| O=C(NCCc1cnc[nH]1)c1ccc(-c2ncc3cnc(-c4cccc(F)c4)cn23)cc1 | = | 0.248 |
| CNC(=O)[C@@H]1CN(C(=O)c2cccc(OC)c2)C[C@H]1COC | > | 2 |
| N#Cc1ccccc1CN1CCC2(CC1)CC(O)CCO2 (stereo not drawn) | = | 1.34 |
| N#Cc1ccc(CN2CCC3(C2)NC(=O)c2ccccc2O3)cc1 (stereo not drawn) | > | 2 |
| N#Cc1ccc(CN2CCC(N3CCNC3=O)CC2)cc1 | = | 1.55 |
| CC(C)(C)c1coc([C@@H]2COCCN2Cc2cccc(C#N)c2)n1 | = | 0.943 |
| N#Cc1ccc(CN2CC(Oc3ccc(F)cc3F)C2)cc1 | = | 1.05 |
| CCOCCOC1CCN(C(=O)Nc2ccccc2)CC1 | > | 2 |
| O=C(Nc1ncc(-c2cccc(F)c2)c2c1OCC2)c1ccncc1 | > | 2 |
| O=C(O)c1ccc(CN2CCOC[C@H]2c2ncc(-c3ccc(F)cc3)[nH]2)cc1 | > | 2 |
| CN(CC1CCOC1)C(=O)Nc1cccc(F)c1 (stereo not drawn) | > | 2 |
| COc1ccccc1-c1[nH]nc2ncc(-c3cccc(F)c3)nc12 | > | 2 |
| O=C(c1ccoc1)N1CCC(Oc2ccccc2)C1 (stereo not drawn) | > | 2 |
| Cc1ccccc1-c1[nH]nc2ncc(-c3ccccc3C#N)nc12 | > | 2 |
| N#Cc1cccc(-c2cn3c(n2)N(C(=O)c2ccco2)CCC3)c1 | = | 0.612 |
| Cc1ccsc1-c1[nH]nc2ncc(-c3ccccc3)nc12 | = | 0.308 |
| CC(=O)N1CCC(Cc2ccc(C(=O)NC3CC3)cc2)CC1 | = | 1.33 |
| O=C(c1ccc(-c2ncc3cnc(-c4cccc(F)c4)cn23)cc1)N1CCc2cccnc21 | = | 0.288 |
| Fc1cccc(-c2cnc(Nc3cncnc3)c3c2CCO3)c1 | = | 0.16 |
| CN1c2cc(C(=O)Nc3ccc(C#N)cc3)ccc2C(=O)N2CCCCC21 (stereo not drawn) | > | 2 |
| Cc1cc(F)ccc1OC1CN(Cc2ccc(C#N)cc2)C1 | = | 0.59 |

----------
Test system: human liver cytosol stability, half-life
Assay: NCATS Human Liver Cytosol Stability Profiling
Settings: higher = more stable
Procedure: Assay submitter (PI): Pranav Shah Ph.D. NIH Center for Advancing Translational Sciences Over the last few decades, chemists have become skilled at designing compounds that avoid cytochrome P (CYP) 450 mediated metabolism. Typical screening assays are performed in liver microsomal fractions and it is possible to overlook the contribution of cytosolic enzymes until much later in the drug discovery process. […]

| compound | half-life |
| --- | --- |
| N#Cc1ccnc(-c2nnc3ccc(NCc4cnccn4)nn23)c1 | > 2 h |
| COc1cccc(CN2CCOC[C@H](O)C2)c1 | 0.47 h |
| O=C(c1ccsc1)N1CCC(Oc2cccc(F)c2)C1 (configuration not stated) | 1.38 h |
| Fc1cccc(Nc2ncc(-c3cncnc3)c3c2OCC3)c1 | > 2 h |
| COc1cccc(-c2c(C(=O)N3CCCCC3)nc3sccn23)c1 | 1.9 h |
| O=C(c1cccc(F)c1)N1CCC(Oc2cccnc2)C1 (configuration not stated) | > 2 h |
| N#Cc1ccc(C(=O)N2CCCOCCNC(=O)CC2)cc1 | > 2 h |
| Cc1cc2cc(-c3c(C)noc3C)nc(Nc3ccccc3)c2o1 | 0.593 h |
| CCOCCOC1CCN(C(=O)Nc2cccc(F)c2)CC1 | > 2 h |
| Cc1noc(-c2cn(C3CCN(C(=O)c4cccc(F)c4)C3)nn2)n1 (configuration not stated) | > 2 h |
| N#Cc1ccc(CN2CCC(N3CCOC3=O)CC2)cc1 | > 2 h |
| CCN1CCN(C(=O)c2nc3sccn3c2-c2cccc(C#N)c2)CC1 | > 2 h |

src = PubChem BioAssay AID1508603
